- System: NB7 (Neuroblastoma);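 also: after 72 h of two-drug dosing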
- assay: Bliss excess, mean over the matrix (fraction); higher = more synergy
Listed below: Bliss excess values for each entry.
endpoint_label: Bliss excess

1) COc1cc2ncnc(Nc3ccc(F)c(Cl)c3)c2cc1OCCCN1CCOCC1 [Gefitinib] + CC(C)n1c(=O)n(C)c2cnc3cc(F)c(-c4ccc(OCCCN5CCCCC5)nc4)cc3c21 [AZD1390] (first compound max 10 µM, 7x7, partner max 0.3 µM)    -0.0402
2) N#Cc1cnc(Nc2cc(NC[C@H]3CNCCO3)c(C(F)(F)F)cn2)cn1 [SRA737] + O=c1[nH]cc(F)c(=O)[nH]1 [5-Fluorouracil] (first compound max 10 µM, 7x7, partner max 20 µM)    -0.0058
3) Cc1cc2ncnn2cc1Nc1ncc2c(n1)n(C1CCOCC1)c(=O)n2C [AZD7648] + C=CCn1c(=O)c2cnc(Nc3ccc(N4CCN(C)CC4)cc3)nc2n1-c1cccc(C(C)(C)O)n1 [AZD1775] (first compound max 10 µM, partner max 1 µM)    -0.011
4) CN(CCO)CC[C@H](CSc1ccccc1)Nc1ccc(S(=O)(=O)NC(=O)c2ccc(N3CCC([C@@H](O)c4ccccc4-c4ccc(Cl)cc4)CC3)cc2)cc1S(=O)(=O)C(F)(F)F [AZD4320] + C1CN(CCC1(C(=O)N[C@@H](CCO)C2=CC=C(C=C2)Cl)N)C3=NC=NC4=C3C=CN4 [Capivasertib] (first compound max 1 µM, 7x7, partner max 3 µM)    -0.0403

----------
- Tested on: LC4-1 (B-Lymphoblastic Leukemia)
- assay: combination Emax (second highest fraction inhibited in the dose matrix, 72 h); higher = more inhibition; extreme values may be limits of the assay
Listed below: combination Emax values for each entry.
endpoint_label: combination Emax

1. CC1(C)CCC(CN2CCN(c3ccc(C(=O)NS(=O)(=O)c4ccc(NCC5CCOCC5)c([N+](=O)[O-])c4)c(Oc4cnc5[nH]ccc5c4)c3)CC2)=C(c2ccc(Cl)cc2)C1 [Venetoclax] + C1CN(CCC1(C(=O)N[C@@H](CCO)C2=CC=C(C=C2)Cl)N)C3=NC=NC4=C3C=CN4 [Capivasertib] (first compound max 1 µM, 7x7, partner max 3 µM)    1
2. COc1nnc2ccc(N3CCC(c4ccc(OCCN5CCN(C)C(=O)[C@H]5C)cc4)CC3)nn12 [AZD5153] + CC1(C)CCC(CN2CCN(c3ccc(C(=O)NS(=O)(=O)c4ccc(NCC5CCOCC5)c([N+](=O)[O-])c4)c(Oc4cnc5[nH]ccc5c4)c3)CC2)=C(c2ccc(Cl)cc2)C1 [Venetoclax] (first compound max 1 µM, 7x7, partner max 1 µM)    1
3. COc1cccc(OCCCN)c1-c1cc(Nc2cnc(C#N)cn2)n[nH]1 [Prexasertib] + C=CCn1c(=O)c2cnc(Nc3ccc(N4CCN(C)CC4)cc3)nc2n1-c1cccc(C(C)(C)O)n1 [AZD1775] (first compound max 1 µM, partner max 1 µM)    0.983
4. NC1(C(=O)N[C@@H](CCO)c2ccc(Cl)cc2)CCN(c2ncnc3[nH]ccc23)CC1 [Capivasertib] + CC(=O)c1c(C)c2cnc(Nc3ccc(N4CCNCC4)cn3)nc2n(C2CCCC2)c1=O [Palbociclib] (first compound max 10 µM, 7x7, partner max 10 µM)    0.578
5. O=C(c1cc(Cc2n[nH]c(=O)c3ccccc23)ccc1F)N1CCN(C(=O)C2CC2)CC1 [Olaparib] + CC1(C)CCC(CN2CCN(c3ccc(C(=O)NS(=O)(=O)c4ccc(NCC5CCOCC5)c([N+](=O)[O-])c4)c(Oc4cnc5[nH]ccc5c4)c3)CC2)=C(c2ccc(Cl)cc2)C1 [Venetoclax] (first compound max 10 µM, 7x7, partner max 1 µM)    1
6. CCc1c2c(nc3ccc(O)cc13)-c1cc3c(c(=O)n1C2)COC(=O)[C@]3(O)CC [SN-38] + CN(C)CCCOc1ccc(-c2ccc3ncc4c(c3c2)n(C2CCOCC2)c(=O)n4C)cn1 [AZD0156] (first compound max 0.3 µM, 7x7, partner max 1 µM)    0.932
7. C=CCn1c(=O)c2cnc(Nc3ccc(N4CCN(C)CC4)cc3)nc2n1-c1cccc(C(C)(C)O)n1 [AZD1775] + C1CN(CCC1(C(=O)N[C@@H](CCO)C2=CC=C(C=C2)Cl)N)C3=NC=NC4=C3C=CN4 [Capivasertib] (first compound max 3 µM, partner max 3 µM)    0.884

----------
- Test system: VMRC-LCD (Lung Adenocarcinoma)
- assay: combination Emax (second highest fraction inhibited in the dose matrix, 72 h); higher = more inhibition; extreme values may be limits of the assay
endpoint_label: combination Emax

1) C[C@@H](Oc1cc(-c2cnn(C3CCNCC3)c2)cnc1N)c1c(Cl)ccc(F)c1Cl [Crizotinib] + Cn1cnc2c(F)c(Nc3ccc(Br)cc3Cl)c(C(=O)NOCCO)cc21 [Selumetinib] (first compound max 10 µM, 7x7, partner max 10 µM)    0.665
2) CN(C)CCCOc1ccc(-c2ccc3ncc4c(c3c2)n(C2CCOCC2)c(=O)n4C)cn1 [AZD0156] + CCN(CCO)CCCOc1ccc2c(Nc3cc(CC(=O)Nc4cccc(F)c4)[nH]n3)ncnc2c1 [AZD2811] (first compound max 1 µM, 7x7, partner max 1 µM)    0.545
3) NC1(C(=O)N[C@@H](CCO)c2ccc(Cl)cc2)CCN(c2ncnc3[nH]ccc23)CC1 [Capivasertib] + CC(C)n1c(=O)n(C)c2cnc3cc(F)c(-c4ccc(OCCCN5CCCCC5)nc4)cc3c21 [AZD1390] (first compound max 10 µM, 7x7, partner max 0.3 µM)    0.0998
4) CN(CCO)CC[C@H](CSc1ccccc1)Nc1ccc(S(=O)(=O)NC(=O)c2ccc(N3CCC([C@@H](O)c4ccccc4-c4ccc(Cl)cc4)CC3)cc2)cc1S(=O)(=O)C(F)(F)F [AZD4320] + C[C@@H]1COCCN1C2=NC(=NC(=C2)C3(CC3)[S@](=N)(=O)C)C4=C5C=CNC5=NC=C4 [AZD6738] (first compound max 1 µM, 7x7, partner max 10 µM)    0.611
5) COc1cccc(OCCCN)c1-c1cc(Nc2cnc(C#N)cn2)n[nH]1 [Prexasertib] + C=CCn1c(=O)c2cnc(Nc3ccc(N4CCN(C)CC4)cc3)nc2n1-c1cccc(C(C)(C)O)n1 [AZD1775] (first compound max 1 µM, partner max 1 µM)    0.772
6) CC1(C)CCC(CN2CCN(c3ccc(C(=O)NS(=O)(=O)c4ccc(NCC5CCOCC5)c([N+](=O)[O-])c4)c(Oc4cnc5[nH]ccc5c4)c3)CC2)=C(c2ccc(Cl)cc2)C1 [Venetoclax] + COc1cc(Nc2ncc3c(n2)-c2ccc(Cl)cc2C(c2c(F)cccc2OC)=NC3)ccc1C(=O)O [Alisertib] (first compound max 1 µM, 7x7, partner max 10 µM)    0.619
7) C[C@@H](c1ccc2nccn2c1)n1nnc2ncc(-c3cnn(C)c3)nc21 [Savolitinib] + Cc1c2c(nn1C)CSCc1cc(n(C)n1)CSc1cc(c3ccccc3c1)OCCCc1c(C(=O)O)n(C)c3c-2c(Cl)ccc13 [AZD5991] (first compound max 1 µM, 7x7, partner max 1 µM)    0.154
8) COc1cccc(OCCCN)c1-c1cc(Nc2cnc(C#N)cn2)n[nH]1 [Prexasertib] + Cc1cc2ncnn2cc1Nc1ncc2c(n1)n(C1CCOCC1)c(=O)n2C [AZD7648] (first compound max 1 µM, 7x7, partner max 10 µM)    0.749
9) CCN(CCO)CCCOc1ccc2c(Nc3cc(CC(=O)Nc4cccc(F)c4)[nH]n3)ncnc2c1 [AZD2811] + C=CCn1c(=O)c2cnc(Nc3ccc(N4CCN(C)CC4)cc3)nc2n1-c1cccc(C(C)(C)O)n1 [AZD1775] (first compound max 1 µM, partner max 1 µM)    0.553
10) Cc1c2c(nn1C)CSCc1cc(n(C)n1)CSc1cc(c3ccccc3c1)OCCCc1c(C(=O)O)n(C)c3c-2c(Cl)ccc13 [AZD5991] + CS(=O)(=O)CCNCc1ccc(-c2ccc3ncnc(Nc4ccc(OCc5cccc(F)c5)c(Cl)c4)c3c2)o1 [Lapatinib] (first compound max 1 µM, 7x7, partner max 10 µM)    0.33
11) Cn1cnc2c(F)c(Nc3ccc(Br)cc3Cl)c(C(=O)NOCCO)cc21 [Selumetinib] + C=CCn1c(=O)c2cnc(Nc3ccc(N4CCN(C)CC4)cc3)nc2n1-c1cccc(C(C)(C)O)n1 [AZD1775] (first compound max 10 µM, partner max 1 µM)    0.702
12) CC1(C)CCC(CN2CCN(c3ccc(C(=O)NS(=O)(=O)c4ccc(NCC5CCOCC5)c([N+](=O)[O-])c4)c(Oc4cnc5[nH]ccc5c4)c3)CC2)=C(c2ccc(Cl)cc2)C1 [Venetoclax] + CN(C)CCCOc1ccc(-c2ccc3ncc4c(c3c2)n(C2CCOCC2)c(=O)n4C)cn1 [AZD0156] (first compound max 1 µM, 7x7, partner max 1 µM)    0.153
13) COc1nnc2ccc(N3CCC(c4ccc(OCCN5CCN(C)C(=O)[C@H]5C)cc4)CC3)nn12 [AZD5153] + CC1(C)CCC(CN2CCN(c3ccc(C(=O)NS(=O)(=O)c4ccc(NCC5CCOCC5)c([N+](=O)[O-])c4)c(Oc4cnc5[nH]ccc5c4)c3)CC2)=C(c2ccc(Cl)cc2)C1 [Venetoclax] (first compound max 1 µM, 7x7, partner max 1 µM)    0.489
